- ASSAY_SYSTEM: rat μ (C6-MOR) opioid receptor (Rattus norvegicus)
- Construct: expressed in transfected cells
- Sequence (P33535 whole entry): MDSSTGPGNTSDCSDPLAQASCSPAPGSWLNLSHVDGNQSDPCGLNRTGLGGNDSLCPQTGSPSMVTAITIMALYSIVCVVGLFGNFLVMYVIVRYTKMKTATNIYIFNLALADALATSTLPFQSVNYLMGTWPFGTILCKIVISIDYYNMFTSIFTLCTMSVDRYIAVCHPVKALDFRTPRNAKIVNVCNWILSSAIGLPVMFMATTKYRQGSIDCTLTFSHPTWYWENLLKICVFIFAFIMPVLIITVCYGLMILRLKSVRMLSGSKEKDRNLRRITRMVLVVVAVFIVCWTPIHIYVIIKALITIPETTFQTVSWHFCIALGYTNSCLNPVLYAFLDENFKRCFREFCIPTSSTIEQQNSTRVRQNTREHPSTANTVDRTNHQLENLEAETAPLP
- ASSAY_INFO: Stimulation of [35S]GTPγS binding, MOR
- Type: biochemical
- CONDITION_DETAILS: [35S]GTPγS maximal stimulation compared with 10 μM standard DAMGO
# Emax per record follows
PROPERTY_NAME: Emax

COMPOUND	ASSAY_SYSTEM	PROPERTY_NAME	MEASUREMENT
CCc1cc(Cc2ccccc2)cc2c1NCC[C@H]2NC(=O)[C@@H](N)Cc1c(C)cc(O)cc1C	rat μ (C6-MOR) opioid receptor (Rattus norvegicus)	Emax	75%
CCCCCCc1ccc2c(c1)[C@@H](NC(=O)[C@@H](N)Cc1c(C)cc(O)cc1C)CCN2	rat μ (C6-MOR) opioid receptor (Rattus norvegicus)	Emax	18%
COc1cccc2c1CC(Cc1ccc3c(c1)[C@H](NC(=O)[C@@H](N)Cc1c(C)cc(O)cc1C)CCN3)C2 (stereo partly shown)	rat μ (C6-MOR) opioid receptor (Rattus norvegicus)	Emax	32.9%
COc1ccccc1Oc1ccc2c(c1)[C@H](NC(=O)[C@@H](N)Cc1c(C)cc(O)cc1C)CCN2C(C)=O	rat μ (C6-MOR) opioid receptor (Rattus norvegicus)	Emax	30.5%
Cc1cc(O)cc(C)c1C[C@H](N)C(=O)N[C@@H]1CCNc2ccc(Oc3ccc(Cl)cc3)cc21	rat μ (C6-MOR) opioid receptor (Rattus norvegicus)	Emax	52.9%
CC(=O)N1CC[C@@H](NC(=O)[C@@H](N)Cc2c(C)cc(O)cc2C)c2cc(CN3CCc4cccc(C(F)(F)F)c4C3)ccc21	rat μ (C6-MOR) opioid receptor (Rattus norvegicus)	Emax	55.1%
Cc1cc(O)cc(C)c1C[C@H](N)C(=O)N[C@@H]1CCCc2ccc(Oc3ccccc3)cc21	rat μ (C6-MOR) opioid receptor (Rattus norvegicus)	Emax	41.9%
COc1ccccc1Oc1ccc2c(c1)[C@H](NC(=O)[C@@H](N)Cc1c(C)cc(O)cc1C)CCN2	rat μ (C6-MOR) opioid receptor (Rattus norvegicus)	Emax	35.7%
Cc1cc(O)cc(C)c1C[C@H](N)C(=O)N[C@@H]1CCNc2c(CN3CCNCC3)cc(Cc3ccccc3)cc21	rat μ (C6-MOR) opioid receptor (Rattus norvegicus)	Emax	61%
Cc1cc(O)cc(C)c1C[C@H](N)C(=O)N[C@@H]1CCNc2c1cc(Cc1ccccc1)cc2C(C)(C)C	rat μ (C6-MOR) opioid receptor (Rattus norvegicus)	Emax	83.2%

---

- ASSAY_SYSTEM: human κ (CHO-KOR) opioid receptor (Homo sapiens, UniProt P41145)
- Sequence (P41145 whole entry): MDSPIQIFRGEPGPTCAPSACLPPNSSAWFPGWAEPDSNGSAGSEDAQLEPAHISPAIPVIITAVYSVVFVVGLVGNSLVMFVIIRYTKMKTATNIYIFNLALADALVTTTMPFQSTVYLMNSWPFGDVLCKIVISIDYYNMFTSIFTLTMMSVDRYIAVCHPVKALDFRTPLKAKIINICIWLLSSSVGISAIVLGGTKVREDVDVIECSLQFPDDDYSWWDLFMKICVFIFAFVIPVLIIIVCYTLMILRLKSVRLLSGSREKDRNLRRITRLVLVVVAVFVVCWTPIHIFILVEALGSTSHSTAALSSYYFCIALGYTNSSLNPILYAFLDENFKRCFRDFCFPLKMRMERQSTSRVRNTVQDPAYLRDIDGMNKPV
- ASSAY_INFO: Stimulation of [35S]GTPγS binding, KOR
- CONDITION_DETAILS: [35S]GTPγS binding, CHO-KOR membranes; mean ± standard error
pEC50: −log10 of the molar value.
Quick list: pEC50 per entry.

COMPOUND_STRING	ASSAY_SYSTEM	pEC50
Cc1cc(O)cc(C)c1C[C@H](N)C(=O)N[C@@H]1CCOc2ccc(Cc3ccccc3)cc21	human κ (CHO-KOR) opioid receptor (Homo sapiens, UniProt P41145)	6.18
Cc1cc(O)cc(C)c1C[C@H](N)C(=O)N[C@@H]1CCN2CCCc3cc(Cc4ccccc4)cc1c32	human κ (CHO-KOR) opioid receptor (Homo sapiens, UniProt P41145)	6.00
Cc1cc(O)cc(C)c1C[C@H](N)C(=O)N[C@@H]1CCNc2ccc(S(=O)(=O)c3ccccc3)cc21	human κ (CHO-KOR) opioid receptor (Homo sapiens, UniProt P41145)	5.88
CC(=O)N1CC[C@@H](NC(=O)[C@@H](N)Cc2c(C)cc(O)cc2C)c2cc(Oc3cccc(Cl)c3)ccc21	human κ (CHO-KOR) opioid receptor (Homo sapiens, UniProt P41145)	6.10
